Where do the numbers come from? From ChEMBL document CHEMBL1201862.

System: Malme-3M
Assay: NCI tumour cell line growth inhibition, 48 h
Calls of active or inactive are those of the source. Rule as the data show it: active = GI50 up to about 1.1 µM and inactive = higher. Non-standard residues stand in square brackets, D forms with d. Residues, ends and D or L forms follow the SMILES beside them.
Valid outcomes are listed here; reply with one: Y (active), N (inactive)

Hi, do you know how CC1=CC(C)(C)N=C2SC(c3ccc(N)cc3)=NN12 came out in this test?
N

Just curious, what result did CCc1nc2c([nH]1)C(=O)c1ccccc1C2=O get here?
N

Dear all, I need the recorded test outcome for Cc1c2ccccc2cc2ccc3oc([N+](=O)[O-])cc3c12 , thank you.
N

Look up the recorded call for CC(=O)O[C@H]1CC[C@@]2(C)C(=CC[C@H]3[C@@H]4C/C(=C\c5ccncc5)[C@H](OC(C)=O)[C@@]4(C)CC[C@@H]32)C1 in this test.
N

Look up the recorded call for O=C1NC(=O)C2C(=O)NC(=O)C1C2(c1ccccc1)c1ccc(Cl)cc1 (stereo unspecified) in this test.
N

Hi, sorry to bother you, what did the test record for O=C1C(NCCc2ccc(O)c([N+](=O)[O-])c2)=CC(=O)c2[nH]cnc21 ?
N

Test call for this compound, please: Cc1c[nH]c2c(O)cc3c(c12)[C@H](CCl)CN3C(=O)c1cc2cc(NC(=O)Nc3ccc4[nH]c(C(=O)N5C[C@@H](CCl)c6c5cc(O)c5[nH]cc(C)c65)cc4c3)ccc2[nH]1
N

Outcome logged for CC(C)C[C@H](NC(=O)[C@H](CC(C)C)NC(=O)[C@@H](Cc1c[nH]c2ccccc12)NC(=O)[C@H](Cc1ccccc1)NC(=O)[C@@H](Cc1c[nH]c2ccccc12)NC(=O)[C@H](CCC(N)=O)NC(=O)[C@H](CCC(N)=O)NC(=O)[C@H]1CCCN1C(=O)[C@@H](N)CCCCN)C(N)=O (H-K[dP]QQ[dW]F[dW]LL-NH2) in this assay:
N

In this assay, the call recorded for Cc1cc(=O)[nH]c2c1C(=O)c1c(C)cc(=O)n(C)c1C2=O was what?
Y

Outcome? COC(=O)CC1CN(C(=O)OCc2ccccc2)C(C)(C)O1 (stereo unspecified)
N

Hi team, can someone confirm the assay call for COc1cc(C[C@@]2(C)[C@@H]3CCC[C@H](CO)[C@@]3(C)CC[C@@H]2C)c(Cl)c(OC)c1 ?
N

What classification did Nc1nc(N)c2c(Cl)c(CNc3ccc(C(=O)NC(CC(=O)O)C(=O)O)cc3)ccc2n1 (stereo unspecified) end up with in this test?
N

Assay result, entry COC(=O)C1=Cc2cc3c(cc2[C@H](c2ccc4c(c2)OCO4)C1C(=O)OC)OCO3 (stereo partly specified) — outcome?
N

Could you kindly confirm the outcome this assay logged for C=C1C(=O)C23C(O)CC4C5(C)CCCC4(C(O)OC5)C2C(OC(C)=O)CC1C3O (stereo unspecified) ?
N

Please let me know the test result on file for CN(/N=C/c1cccc2cccnc12)c1ccccc1 .
N

// param item: CCN(CC)CCC(=O)/C=C/c1ccc(Cl)c(Cl)c1 ; yields the recorded call
N

---

Exercise: for every item that follows, state its recorded GI50.
System: OVCAR-8
Assay: NCI tumour cell line growth inhibition, 48 h
Active and inactive are the calls of the source. Cut-off read from the data, not from the text of the source: active = GI50 up to about 1.1 µM and inactive = higher.

Return reported GI50; argument: CC1=CC(C)(C)N=C2SC(c3ccc(N)cc3)=NN12
55.7 µM (inactive)

Look up GI50: CCCCCCCCC/C=C1/CC(CO)(COC(=O)CC(C(C)C)C(C)C)OC1=O (stereo not given)
16 µM (inactive)

Please report the recorded GI50 for O=C(CCN(C(=O)O)S(=O)(=O)c1ccc(NC(=O)c2ccccc2)cc1)NC1CCCCC1 .
> 100 µM (inactive)

# lookup: GI50 of O=C(Nc1cccc(C(F)(F)F)c1)c1cc(-c2ccccc2)nc(S)n1
> 100 µM (inactive)

# query: GI50 of entry Oc1nc2c(c(-c3cccc(Cl)c3)n1)COC/C2=C\c1cccc(Cl)c1
> 100 µM (inactive)
